From: the supplement of paper PMC9694430

# thermal shift delta Tm values compiled below
- Test system: LOC_OS04G38480-cb003
- Sequence (as listed by the source): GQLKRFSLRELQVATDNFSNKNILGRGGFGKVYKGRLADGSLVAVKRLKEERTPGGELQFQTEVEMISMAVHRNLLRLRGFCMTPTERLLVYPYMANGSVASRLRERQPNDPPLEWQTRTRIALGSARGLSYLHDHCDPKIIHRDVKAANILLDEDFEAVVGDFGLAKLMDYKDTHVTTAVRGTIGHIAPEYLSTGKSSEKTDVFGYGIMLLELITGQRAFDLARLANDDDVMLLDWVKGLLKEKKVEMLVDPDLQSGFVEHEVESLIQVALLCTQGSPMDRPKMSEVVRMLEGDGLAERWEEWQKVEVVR
- procedure summary: thermal shift delta Tm vs DMSO control; higher = stronger stabilization (binding);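 note: purified Escherichia coli-expressed rice kinase domain construct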
- measurement context: 12.5 µM; protein concentration 2 µM
Give a bare numeral; the unit °C is implied.

The recorded thermal shift delta Tm with LOC_OS04G38480-cb003 for C=CC(=O)N[C@H]1CCOC[C@H]1Nc1ncc2cc(-c3c(Cl)c(OC)cc(OC)c3Cl)ccc2n1 was 0.04

The recorded thermal shift delta Tm with LOC_OS04G38480-cb003 for CN(C)S(=O)(=O)c1ccc2c(c1)/C(=C/c1cc3c([nH]1)CCCC3)C(=O)N2 was 6.35

The recorded thermal shift delta Tm with LOC_OS04G38480-cb003 for Cc1n[nH]c2ncc(C(=O)N3CCC[C@H]3c3ccc(Cl)cc3)cc12 was 0.98

The recorded thermal shift delta Tm with LOC_OS04G38480-cb003 for CCOc1cc2ncc(C#N)c(Nc3ccc(F)c(Cl)c3)c2cc1NC(=O)/C=C/CN(C)C [Pelitinib (EKB-569)] was 0.56

The recorded thermal shift delta Tm with LOC_OS04G38480-cb003 for Cc1ccc(NC(=O)c2ccc(CN3CCN(C)CC3)cc2)cc1Nc1nccc(-c2cccnc2)n1 [Imatinib (STI571)] was 0.88

The recorded thermal shift delta Tm with LOC_OS04G38480-cb003 for CN(C)C/C=C/C(=O)Nc1cc2c(Nc3ccc(F)c(Cl)c3)ncnc2cc1O[C@H]1CCOC1 [Afatinib (BIBW2992) Dimaleate] was 2.08

The recorded thermal shift delta Tm with LOC_OS04G38480-cb003 for CONC(=O)c1ccccc1Nc1cc(Nc2cc(C)nn2C(C)C)ncc1Cl was 2.41

The recorded thermal shift delta Tm with LOC_OS04G38480-cb003 for OC(c1cc(-c2ccc(Cl)cc2)nc2ccccc12)C1CCCCN1 (stereo not given) was 1.95

The recorded thermal shift delta Tm with LOC_OS04G38480-cb003 for Cc1c(NC(=O)OC[C@@H]2COCCN2)cn2ncnc(Nc3ccc4c(cnn4Cc4cccc(F)c4)c3)c12 was 1.85

The recorded thermal shift delta Tm with LOC_OS04G38480-cb003 for Cc1csc(-c2nnc(Nc3ccc(Oc4ncccc4-c4ccnc(N)n4)cc3)c3ccccc23)c1 was 2.54

The recorded thermal shift delta Tm with LOC_OS04G38480-cb003 for CC(C)n1nc(-c2cc3cc(O)ccc3[nH]2)c2c(N)ncnc21 was 1.25

The recorded thermal shift delta Tm with LOC_OS04G38480-cb003 for Cn1cc(-c2ccc3ncc(Cc4ccc5ncccc5c4)n3n2)cn1 was 1.45

The recorded thermal shift delta Tm with LOC_OS04G38480-cb003 for Cc1ccc2nc(NCCN)c3ncc(C)n3c2c1 was 0.69

The recorded thermal shift delta Tm with LOC_OS04G38480-cb003 for CCOC(=O)c1cnc2ccc(-c3cncc(NS(=O)(=O)c4ccccc4)c3)cn12 was 1.81

The recorded thermal shift delta Tm with LOC_OS04G38480-cb003 for O=C(O)[C@]1(Cc2cccc(Nc3nccs3)n2)CC[C@@H](Oc2cccc(Cl)c2F)CC1 was 4.53

----------
# thermal shift delta Tm values compiled below
- System: LOC_OS03G50450-cb001
- procedure summary: thermal shift delta Tm vs DMSO control; higher = stronger stabilization (binding)
- measurement context: 12.5 µM; protein concentration 2 µM
Your answer should be a number followed by the unit of measure.

molecule=CNc1nc(Nc2cn(C(C)(C)C#N)nc2C)ncc1C(F)(F)F subject_of_test=LOC_OS03G50450-cb001 metric_name="thermal shift delta Tm" measurement="0.78 °C"
molecule=Cc1n[nH]c2ncc(C(=O)N3CCC[C@H]3c3ccc(Cl)cc3)cc12 subject_of_test=LOC_OS03G50450-cb001 metric_name="thermal shift delta Tm" measurement="0.17 °C"
molecule="Cc1ccc(NC(=O)c2ccc(CN3CCN(C)CC3)cc2)cc1Nc1nccc(-c2cccnc2)n1 [Imatinib (STI571)]" subject_of_test=LOC_OS03G50450-cb001 metric_name="thermal shift delta Tm" measurement="0.4 °C"
molecule=Cc1ccc(CNc2ncnc3ccc(-c4ccc(CO)o4)cc23)o1 subject_of_test=LOC_OS03G50450-cb001 metric_name="thermal shift delta Tm" measurement="0.03 °C"
molecule=CCN1CCN(Cc2ccc(Nc3ncc(F)c(-c4cc(F)c5nc(C)n(C(C)C)c5c4)n3)nc2)CC1 subject_of_test=LOC_OS03G50450-cb001 metric_name="thermal shift delta Tm" measurement="0.16 °C"
molecule=Nc1nccc(Oc2ccc(NC(=O)c3c[nH]cc(-c4ccc(F)cc4)c3=O)cc2F)c1Cl subject_of_test=LOC_OS03G50450-cb001 metric_name="thermal shift delta Tm" measurement="0.31 °C"
molecule=Nc1nc(Nc2ccc(S(N)(=O)=O)cc2)nn1C(=O)c1c(F)cccc1F subject_of_test=LOC_OS03G50450-cb001 metric_name="thermal shift delta Tm" measurement="0.97 °C"
molecule=Cn1cc(-c2ccc3nnc(Sc4ccc5ncccc5c4)n3n2)cn1 subject_of_test=LOC_OS03G50450-cb001 metric_name="thermal shift delta Tm" measurement="0.82 °C"

Looking up COc1ccc(-c2ccc3c(N4CCOC[C@@H]4C)nc(N4CCOC[C@@H]4C)nc3n2)cc1CO , I found its thermal shift delta Tm recorded as 0.41 °C

Looking up N#C/C(=C(/N)Sc1ccc(N)cc1)c1ccccc1C(F)(F)F , I found its thermal shift delta Tm recorded as -0.3 °C

Looking up C[C@@H](N)c1ccc(C(=O)Nc2ccnc3[nH]ccc23)cc1 , I found its thermal shift delta Tm recorded as 0.85 °C

Looking up O=C1Nc2ccccc2/C1=C1/Nc2ccccc2C1=O , I found its thermal shift delta Tm recorded as 0.08 °C
